Target: UniProt Q9NWZ3
Sequence (Q9NWZ3 1-460): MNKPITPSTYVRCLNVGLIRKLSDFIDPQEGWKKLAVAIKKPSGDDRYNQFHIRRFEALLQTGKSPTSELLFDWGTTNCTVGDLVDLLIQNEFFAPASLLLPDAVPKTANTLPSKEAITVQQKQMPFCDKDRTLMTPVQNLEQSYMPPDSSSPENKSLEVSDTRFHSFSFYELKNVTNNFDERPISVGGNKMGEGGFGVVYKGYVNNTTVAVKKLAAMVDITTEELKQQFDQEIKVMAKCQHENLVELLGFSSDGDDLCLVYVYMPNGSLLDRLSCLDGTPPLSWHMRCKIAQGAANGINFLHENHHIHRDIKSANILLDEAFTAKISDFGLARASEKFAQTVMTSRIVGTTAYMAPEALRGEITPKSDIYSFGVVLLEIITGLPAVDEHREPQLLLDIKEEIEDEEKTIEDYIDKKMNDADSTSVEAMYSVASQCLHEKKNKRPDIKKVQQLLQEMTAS
Assay: OCI-LY-10 degradation assay (western blot, % IRAK4 degraded after 4 hours)
Type: cell-based
Parameters: endogenous in cells; host or cells: OCI-LY10
Conditions: OCI-LY10 cells, 4 hours, 0.01 uM compound
Quantity measured: OCI-LY10 % IRAK4 Degradation (0.01 uM)

Example entries begin here.
# Molecule, Quantity measured, Endpoint value
measured = [
    ("NC(=O)c1nn(-c2ccc(C(=O)NCCOCCOCCCc3cccc4c3oc(=O)n4C3CCC(=O)NC3=O)cc2)cc1NC(=O)c1coc(-c2ccnc(NCC(F)(F)F)c2)n1 (stereo not drawn)", "OCI-LY10 % IRAK4 Degradation (0.01 uM)", "C (<20% degradation)"),
    ("O=C1CCC(N2C(=O)c3cccc(NCCOCCN4CCO[C@H](CNCc5ccc(-n6cc(NC(=O)c7coc(-c8ccnc(NCC9CC9)c8)n7)c(C(F)F)n6)cc5)C4)c3C2=O)C(=O)N1 (stereo partly drawn) [I-330]", "OCI-LY10 % IRAK4 Degradation (0.01 uM)", "C (<20% degradation)"),
    ("O=C1CCC(N2C(=O)c3ccc(CCCNCc4ccc(-n5cc(NC(=O)c6coc(-c7ccncc7)n6)c(C(F)F)n5)cc4)cc3C2=O)C(=O)N1 (stereo not drawn)", "OCI-LY10 % IRAK4 Degradation (0.01 uM)", "C (<20% degradation)"),
    ("O=C1CCC(n2c(=O)oc3c(CCCOCCOCCNC(=O)c4ccc(-n5cc(NC(=O)c6coc(-c7ccnc(NCC(F)(F)F)c7)n6)c(C(F)F)n5)cc4)cccc32)C(=O)N1 (stereo not drawn)", "OCI-LY10 % IRAK4 Degradation (0.01 uM)", "B (>20-50% degradation)"),
    ("NC(=O)c1nn(-c2ccc(CNCCCc3ccc4c(c3)C(=O)N(C3CCC(=O)NC3=O)C4=O)cc2)cc1NC(=O)c1coc(-c2ccncc2)n1 (stereo not drawn)", "OCI-LY10 % IRAK4 Degradation (0.01 uM)", "C (<20% degradation)"),
    ("NC(=O)c1nn(-c2ccc(CNCCOCCOCCN3CCC(Nc4cccc5c4C(=O)N(C4CCC(=O)NC4=O)C5=O)CC3)cc2)cc1NC(=O)c1coc(-c2ccnc(NCC3CC3)c2)n1 (stereo not drawn)", "OCI-LY10 % IRAK4 Degradation (0.01 uM)", "C (<20% degradation)"),
]

stdin: # query: OCI-LY10 % IRAK4 Degradation (0.01 uM) of entry O=C1CCC(N2C(=O)c3cccc(NCCOCCOCCNCc4ccc(-n5cc(NC(=O)c6coc(-c7ccnc(NCC8CC8)c7)n6)c(C(F)F)n5)cc4)c3C2=O)C(=O)N1 (stereo not drawn)
stdout: C (<20% degradation)

stdin: # query: OCI-LY10 % IRAK4 Degradation (0.01 uM) of entry O=C1CCC(N2C(=O)c3cccc(NCCOCCN4CCO[C@@H](CNC(=O)c5ccc(-n6cc(NC(=O)c7coc(-c8ccnc(NCC(F)(F)F)c8)n7)c(C(F)F)n6)cc5)C4)c3C2=O)C(=O)N1 (stereo partly drawn)
stdout: C (<20% degradation)

stdin: # query: OCI-LY10 % IRAK4 Degradation (0.01 uM) of entry O=C1CCC(N2C(=O)c3cccc(OCc4cnnn4CCOCCOCCNCn4cc(NC(=O)c5coc(-c6ccnc(NCC7CC7)c6)n5)c(C(F)F)n4)c3C2=O)C(=O)N1 (stereo not drawn)
stdout: C (<20% degradation)

stdin: # query: OCI-LY10 % IRAK4 Degradation (0.01 uM) of entry O=C1CCC(N2C(=O)c3cccc(CCCNCCCCCNC(=O)c4ccc(-n5cc(NC(=O)c6coc(-c7ccnc(NCC8CC8)c7)n6)c(C(F)(F)F)n5)cc4)c3C2=O)C(=O)N1 (stereo not drawn)
stdout: B (>20-50% degradation)

stdin: # query: OCI-LY10 % IRAK4 Degradation (0.01 uM) of entry O=C1CCC(N2C(=O)c3ccc(N4CCN(CCOCCOCCOCCNCc5ccc(-n6cc(NC(=O)c7coc(-c8ccnc(NCC9CC9)c8)n7)c(C(F)F)n6)cc5)CC4)cc3C2=O)C(=O)N1 (stereo not drawn)
stdout: C (<20% degradation)

stdin: # query: OCI-LY10 % IRAK4 Degradation (0.01 uM) of entry NC(=O)c1nn(-c2ccc(CNCCOCCOCCn3c(=O)n(C4CCC(=O)NC4=O)c4ccccc43)cc2)cc1NC(=O)c1coc(-c2ccnc(NCC3CC3)c2)n1 (stereo not drawn)
stdout: B (>20-50% degradation)

====

assay: Pharmacokinetics in Sprague Dawley rats (plasma and brain concentrations, PK parameters); format: in vivo; settings: Sprague Dawley, rat, plasma, po, 10 mg/kg, Rat (Sprague Dawley) po 10 mg/kg; Mean; read-out: T1/2 (converted)
Quantity measured: half-life (h)
Enter your answer as a number in h; do not include the unit.

stdin: # query: half-life of entry O=C1CCC(N2C(=O)c3cccc(NCCOCCOCCNCc4ccc(-n5cc(NC(=O)c6coc(-c7ccnc(NCC8CC8)c7)n6)c(C(F)F)n5)cc4)c3C2=O)C(=O)N1 (stereo not shown)
stdout: 4.88

====

assay: Pharmacokinetics in Sprague Dawley rats (plasma and brain concentrations, PK parameters); assay type: in vivo; settings: Sprague Dawley, rat, brain, iv, 3 mg/kg, Rat (Sprague Dawley) iv 3 mg/kg (IVB); brain; 0.083 h; Mean; read-out: brain Actual Conc.
Quantity measured: concentration at 0.083 h (ng/g)
Enter your answer as a number in ng/g; do not include the unit.

stdin: # query: concentration at 0.083 h of entry O=C1CCC(N2C(=O)c3cccc(NCCOCCOCCNCc4ccc(-n5cc(NC(=O)c6coc(-c7ccnc(NCC8CC8)c7)n6)c(C(F)F)n5)cc4)c3C2=O)C(=O)N1 (stereo not shown) [I-210]
stdout: 43.5

====

target: IRAK4 (Homo sapiens); test: OCI-LY-10 degradation assay (western blot, % IRAK4 degraded after 4 hours); type: cell-based; set-up: endogenous in cells; host or cells: OCI-LY10; conditions: OCI-LY10 cells, 4 hours, 1 uM compound
Quantity measured: OCI-LY10 % IRAK4 Degradation (1 uM)

Example entries begin here.
# Compound, OCI-LY10 % IRAK4 Degradation (1 uM)
rows = [
    ("NC(=O)c1nn(-c2ccc(C(=O)NCCOCCCc3cccc4c3C(=O)N(C3CCC(=O)NC3=O)C4=O)cc2)cc1NC(=O)c1coc(-c2ccnc(NCC(F)(F)F)c2)n1 (stereo not shown)", "B (>20-50% degradation)"),
    ("NC(=O)c1nn(-c2ccc(C(=O)NCCOCCOCCNc3cccc4c3C(=O)N(C3CCC(=O)NC3=O)C4=O)cc2)cc1NC(=O)c1coc(-c2ccnc(C3CC3)c2)n1 (stereo not shown)", "B (>20-50% degradation)"),
    ("CN(CCOCCOCCCc1cccc2c1C(=O)N(C1CCC(=O)NC1=O)C2=O)C(=O)c1ccc(-n2cc(NC(=O)c3coc(-c4ccnc(NCC5CC5)c4)n3)c(C(F)F)n2)cc1 (stereo not shown)", "A (>50% degradation)"),
    ("O=C1CCC(N2C(=O)c3ccc(N4CCN(CCOCCNC(=O)c5ccc(-n6cc(NC(=O)c7coc(-c8ccnc(NCC9CC9)c8)n7)c(C(F)F)n6)cc5)CC4)cc3C2=O)C(=O)N1 (stereo not shown)", "A (>50% degradation)"),
    ("Cn1c(=O)n(C2CCC(=O)NC2=O)c2ccc(CCCOCCOCCNC(=O)c3ccc(-n4cc(NC(=O)c5coc(-c6ccnc(NCC(F)(F)F)c6)n5)c(C(N)=O)n4)cc3)cc21 (stereo not shown)", "A (>50% degradation)"),
]

stdin: # query: OCI-LY10 % IRAK4 Degradation (1 uM) of entry O=C1CCC(N2C(=O)c3cccc(CNCc4ccc(-n5cc(NC(=O)c6coc(-c7ccncc7)n6)c(C(F)F)n5)cc4)c3C2=O)C(=O)N1 (stereo not shown)
stdout: C (<20% degradation)

stdin: # query: OCI-LY10 % IRAK4 Degradation (1 uM) of entry Cn1cc(-c2nc(C(=O)Nc3cn(-c4ccc(CNCCOCCOCCNc5ccc6c(c5)C(=O)N(C5CCC(=O)NC5=O)C6=O)cc4)nc3C(F)F)co2)cn1 (stereo not shown)
stdout: C (<20% degradation)
